molecular target: PI3K delta (Homo sapiens, UniProt O00329); construct: for the full-length p110-d subunit are generated and fused by overlapping PCR; p85(iSH2) fusion partner (see partner chain) (N); His tag (C); Tn5 (Trichoplusia ni) or TiniPro insect cells; experiment: PI3K delta kinase assay (Kinase-Glo luminescence)
Sequence (O00329 with tags, fused parts or gaps limits assumed): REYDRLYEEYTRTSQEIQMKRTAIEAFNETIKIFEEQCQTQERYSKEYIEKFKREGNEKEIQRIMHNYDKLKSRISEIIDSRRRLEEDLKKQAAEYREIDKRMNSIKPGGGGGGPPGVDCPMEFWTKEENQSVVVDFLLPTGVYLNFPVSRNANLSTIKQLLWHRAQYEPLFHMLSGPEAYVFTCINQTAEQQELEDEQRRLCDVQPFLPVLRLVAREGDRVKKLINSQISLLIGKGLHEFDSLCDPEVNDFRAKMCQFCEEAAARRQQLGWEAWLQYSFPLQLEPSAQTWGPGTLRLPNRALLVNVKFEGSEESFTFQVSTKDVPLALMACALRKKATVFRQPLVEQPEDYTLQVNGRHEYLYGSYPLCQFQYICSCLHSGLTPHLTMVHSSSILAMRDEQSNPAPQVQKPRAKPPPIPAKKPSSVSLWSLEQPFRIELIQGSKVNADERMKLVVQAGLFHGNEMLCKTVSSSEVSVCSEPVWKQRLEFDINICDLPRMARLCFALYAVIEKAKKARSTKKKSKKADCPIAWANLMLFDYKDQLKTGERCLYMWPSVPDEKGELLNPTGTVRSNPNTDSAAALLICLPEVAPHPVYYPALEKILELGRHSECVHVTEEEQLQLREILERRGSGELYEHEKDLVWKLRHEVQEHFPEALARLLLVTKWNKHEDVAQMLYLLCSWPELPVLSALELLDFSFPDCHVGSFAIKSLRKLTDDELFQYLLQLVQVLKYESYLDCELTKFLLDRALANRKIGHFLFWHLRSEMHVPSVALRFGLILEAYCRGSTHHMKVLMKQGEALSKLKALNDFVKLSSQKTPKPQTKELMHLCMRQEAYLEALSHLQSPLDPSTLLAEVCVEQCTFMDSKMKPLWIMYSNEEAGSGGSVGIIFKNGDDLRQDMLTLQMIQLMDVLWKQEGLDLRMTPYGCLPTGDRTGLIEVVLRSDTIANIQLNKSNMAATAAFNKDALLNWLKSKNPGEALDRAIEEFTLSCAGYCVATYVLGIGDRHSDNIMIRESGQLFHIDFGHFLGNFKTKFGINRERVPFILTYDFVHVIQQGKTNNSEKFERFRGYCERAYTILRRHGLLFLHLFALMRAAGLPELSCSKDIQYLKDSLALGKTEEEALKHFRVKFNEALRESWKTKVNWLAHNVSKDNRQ
Measurement Name: pIC50
Quick note: pIC50 means taking -log10 of the concentration in moles per liter.

State its pIC50 for this compound: COCCn1c(=O)n(C)c2ncc(-c3ccc4ncc5c(c4c3)n(-c3cn(C)nc3C)c(=O)n5C)cc21 [Example 69]
7.44

For the compound CNc1ncc(-c2ccc3ncc4c(c3c2)n(-c2c(C)nn(C)c2C)c(=O)n4C)cc1Cl [Example 146.4] , report pIC50.
7.72

Find the measured pIC50 of CCOc1ccc(-c2ccc3ncc4c(c3c2)n(-c2c(C)nn(C)c2C)c(=O)n4C)cc1OCC [Example 27.2] and report it.
7.30

Item Cc1nn(C)cc1-n1c(=O)n(C)c2cnc3ccc(-c4cnc5c(c4)nc(C)n5C)cc3c21 [Example 73] : provide pIC50
6.43

Note down pIC50 recorded for COc1cc(-c2ccc3ncc4c(c3c2)n(-c2cn(CCO)nc2C)c(=O)n4C)cnc1C [Example 211.1]
7.85

Respond only with pIC50 recorded for CCn1cc(-n2c(=O)n(C)c3cnc4ccc(-c5ccc(N(C)C)nc5)cc4c32)c(C)n1 [Example 4.2]
8.22
